target: MEK1 (Homo sapiens, UniProt Q02750, DEL30-49/S218E/S222D); assay: MEK1 inhibition, fluorescence polarization assay with IMAP beads (ERK1 / FI-Erktide coupled)
Sequence (Q02750 with tags, fused parts or gaps DEL30-49/S218E/S222D): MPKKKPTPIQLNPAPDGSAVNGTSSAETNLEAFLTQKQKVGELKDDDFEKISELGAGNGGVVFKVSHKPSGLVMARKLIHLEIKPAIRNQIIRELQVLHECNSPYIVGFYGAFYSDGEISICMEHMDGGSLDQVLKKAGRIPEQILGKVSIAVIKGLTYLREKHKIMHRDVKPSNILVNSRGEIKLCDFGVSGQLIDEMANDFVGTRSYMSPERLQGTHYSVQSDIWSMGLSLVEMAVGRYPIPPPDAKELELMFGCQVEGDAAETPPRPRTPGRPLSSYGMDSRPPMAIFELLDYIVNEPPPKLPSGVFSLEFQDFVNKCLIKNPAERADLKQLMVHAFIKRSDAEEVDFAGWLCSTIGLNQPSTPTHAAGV
pIC50: −log10 of the molar value.
EXPERIMENTAL READOUT: pIC50

[[record]]
molecule = "Cn1c(=O)c(F)c(Nc2ccc(I)cc2F)c2c(=O)n(C(CO)CO)cnc21 [Example 25]"
result = "≥ 8.30"

[[record]]
molecule = "Cn1c(=O)cc(Nc2ccc(Br)cc2Cl)c2c(=O)n(CCCO)cnc21 [Example 35]"
result = "≤ 7.80"

[[record]]
molecule = "COC(=O)Cn1cnc2c(c(Nc3ccc(I)cc3F)cc(=O)n2C)c1=O [Example 3]"
result = "≤ 7.80"

[[record]]
molecule = "Cn1c(=O)cc(Nc2ccc(Br)cc2F)c2c(=O)n(CCCO)cnc21 [Example 33]"
result = "≤ 7.80"

[[record]]
molecule = "Cn1c(=O)c(Cl)c(Nc2ccc(Br)cc2F)c2c(=O)n(C[C@@H](O)CO)cnc21 [Example 29]"
result = "7.82 to 8.30"

[[record]]
molecule = "Cn1c(=O)c(Cl)c(Nc2ccc(I)cc2F)c2c(=O)n(CCCO)cnc21 [Example 32]"
result = "≥ 8.30"


# evaluate next
Task: Quote pIC50 with test system MEK1 (Homo sapiens, UniProt Q02750, DEL30-49/S218E/S222D) for C#Cc1ccc(Nc2c(C)c(=O)n(C)c3ncn(C[C@@H](O)CO)c(=O)c23)c(F)c1 [Example 16]
Result: 7.82 to 8.30

Values from patent US8470837B2
